TESTED SYSTEM: UniProt:P00469
Sequence (P00469 whole entry): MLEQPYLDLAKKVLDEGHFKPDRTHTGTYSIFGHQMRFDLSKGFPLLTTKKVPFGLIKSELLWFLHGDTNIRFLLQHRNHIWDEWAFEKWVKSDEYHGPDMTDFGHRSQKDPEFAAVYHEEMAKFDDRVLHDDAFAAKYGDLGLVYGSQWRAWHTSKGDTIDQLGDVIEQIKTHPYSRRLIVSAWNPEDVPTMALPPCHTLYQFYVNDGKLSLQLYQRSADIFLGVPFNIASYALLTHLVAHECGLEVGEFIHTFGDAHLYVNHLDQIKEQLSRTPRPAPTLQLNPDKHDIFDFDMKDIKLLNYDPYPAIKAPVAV
TEST DETAILS: Compound was tested for its ability to inhibit thymidylate synthetase isolated from MTX-resistant Lactobacillus casei
Field 'label' (enum: yes / no). Set to yes when Ki is strictly under 200 nM; else no.

{"COMPOUND": "CN(Cc1cnc2nc(N)nc(N)c2n1)c1ccc(C(=O)NCCCC(=O)NC(CCC(=O)O)C(=O)O)cc1 (stereo not given)", "ASSIGNED CATEGORY": "no"}
{"COMPOUND": "CN(Cc1cnc2nc(N)nc(N)c2n1)c1ccc(C(=O)NCCCC(=O)NCCCC(=O)NCCCC(=O)NCCCC(=O)NCCCC(=O)NC(CCC(=O)O)C(=O)O)cc1 (stereo not given)", "ASSIGNED CATEGORY": "yes"}
{"COMPOUND": "CN(Cc1cnc2nc(N)nc(N)c2n1)c1ccc(C(=O)NCCCC(=O)NCCCC(=O)NCCCC(=O)NCCCC(=O)NC(CCC(=O)O)C(=O)O)cc1 (stereo not given)", "ASSIGNED CATEGORY": "yes"}
{"COMPOUND": "CN(Cc1cnc2nc(N)nc(N)c2n1)c1ccc(C(=O)NCCCC(=O)NCCCC(=O)NCCCC(=O)NC(CCC(=O)O)C(=O)O)cc1 (stereo not given)", "ASSIGNED CATEGORY": "yes"}
